# target: HLA-A*02:01 (Homo sapiens, UniProt P04439, D140Y/D185E/D98H/E176V/E277Q/G131W/G231S/I119V/I121R/I166T/I218V/L300P/L318F/N151K/N90K/P208A/P217A/Q86G/Q94H/R138H/R169H/T345S)
# assay: MHC binding assay (UV-ligand exchange, beta2m ELISA, peptide exchange yield)
# test context: MHC class I binding score; binding to HLA-A*02:01 ranged by peptide exchange yield (UV-ligand exchange, β2m ELISA)
measurement label: Peptide exchange

Solved cases below.
{"substance": "97 (ALWWGVVTV; listed as Homo sapiens) [compound 97]", "Peptide exchange": "″++″ (≥20% = ++)"}
{"substance": "38 (SLAPTPVSA; listed as Homo sapiens) [compound 38]", "Peptide exchange": "″++″ (≥20% = ++)"}
{"substance": "84 (SMVEDITGLRL; listed as Homo sapiens) [compound 84]", "Peptide exchange": "″+++″ (≥50 = +++)"}
{"substance": "102 (KILVSLIEV; listed as Homo sapiens) [compound 102]", "Peptide exchange": "″+++″ (≥50 = +++)"}

Data point: 63 (KLFSILSTV; listed as Homo sapiens) [compound 63] ; Peptide exchange = ″++″ (≥20% = ++)

The reported value for 185 (VLYTGVVRV; listed as Homo sapiens) [compound 185] in terms of Peptide exchange is ″+++″ (≥50 = +++)

Entry 150 (RLADLEALKV; listed as Homo sapiens) [compound 150] — recorded Peptide exchange = ″+++″ (≥50 = +++)

Lab note: measured Peptide exchange of 159 (VLVDDDGIKVV; listed as Homo sapiens) [compound 159] was ″++″ (≥20% = ++)

Just so you know, measured Peptide exchange for 28 (ALTEIQEFI; listed as Homo sapiens) [compound 28] came out at ″++++″ (≥75% = ++++)

GET /value?item= 119 (ILYQTVTGL; listed as Homo sapiens) [compound 119] &field=Peptide exchange returns ″++″ (≥20% = ++)
